Target: T1, EGFR Fc (human, UniProt P00533 25-645)
T1 construct: also called EGFR-hFc; recombinant human EGFR-Fc
Experiment Description: ELISA, EGFR Fc coated, VHH at 500 nM
Measurement Name: OD450
Number, no unit, nothing else.

Check out these entries, answers already filled in.
- Binder: "pgEG-SX52 (VHH, not shown: small tags and cut ends) VHH: QVQLVESGGGLVKAGKSLRLSCAASVSSFDTYTMGWYRQAPGKQREQVAIITPGAGTHYADSVKGRFTISRDNAKNTVYLQMSSLKLEDTAVYYCKARHRITGYDYWGQGTQVTVSS"
  OD450: 2.23
- Binder: "pgEG-SX40 (VHH, not shown: small tags and cut ends) VHH: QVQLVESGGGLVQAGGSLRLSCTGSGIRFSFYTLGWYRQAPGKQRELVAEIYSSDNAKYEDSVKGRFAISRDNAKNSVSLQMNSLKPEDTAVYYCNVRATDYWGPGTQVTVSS"
  OD450: 0.963

Input line: What measured OD450 goes with pgEG-SX56 (VHH, not shown: small tags and cut ends) VHH: QVQLVESGGGFVQAGGSLRLSCAASGRFLSIADMDWYRRVPGKQRELVASITRAGDTALEDSVKGRFTISRDNAKNTVHLQMNSVKPEDTAVYYCRADVTRSGTPYFEVWGQGTLVTVSS ?
Output line: 1.5

Input line: What measured OD450 goes with pgEG-SX55 (VHH, not shown: small tags and cut ends) VHH: QVQLVESGGGLVQPGGSLRLSCAGTGLIFTTYVMGWYRQAPGKQRELVAIVTNGGGTHYADFVKGRFTISRDNAKNTVSLQMNLLKPEDTAVYYCNARHLVRPGTNDYWGQGTLVTVSS ?
Output line: 2.24
